Test system: K4 kissing-loop RNA reporter;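 further: bound reporter read as fluorescence of individual clusters on recovered sequencing chips by microscopy, with normalized cluster intensities fitted with a binding model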
Test: apparent KD of K4 kissing-loop reporter; higher = weaker reporter binding
Conditions: Eterna round: R107; input ligand: tryptophan 2.4 mM
Task for the reader: assign each of the following sequences its reported apparent KD of K4 kissing-loop reporter.
Give bare numbers, in nM.

I have 3 sequences here; please give me apparent KD of K4 kissing-loop reporter for each one.
1. AGGUUUUGAUUAGGAUAUGCACUGACGACGAGAAUAUAGUGAUGUUAUAUAAUACGAAUUAGUAGAGUAGAAGGGAUUGAGGUUU [SSFMNB.X]
2. UUUUAAAUAUCUGAUACCAGAGAAAAUAUAUGUAGUGAUGUUAUAUACAAAAUAAAUAAGCUCCCUUGGCAGCAGUAUUAAUUUU [AstrosExyTheB#1]
3. AGUGAUGUAUGGCGGUGUGUCGCUUAAAAUCAGGAUAUAUAAACAAAUAGAAGGGAUGGCGGAGUGAUGUUCCGCCGGCCGCCAU [FMN A Exl V2]

[reply]
[286, 610, 128]

----------
Record form. Attribute: apparent KD of MS2 coat protein. Fill in for each entry.
Tested on: MS2 coat protein
Assay: apparent KD of MS2 coat protein; designed switch direction (-1 OFF switch, 1 ON switch): 1; higher = weaker reporter binding
Details: input ligand: microRNA oligo, concentration not stated
Give bare numbers, in µM.

Below are worked cases with known answers.
UUAAUAAAGUAAGGAUAUACAUGAGGAUCUCUCGUAGAAGGUACUAUACAUGAGGAUCACCCAUGUGCCGGUCCGUAGACUGGA [Mat - Same State NG 1 - JL mod - D7] (Eterna round: R96, puzzle: Same State NG 1)    0.124
ACAUGAAAUUCAGGAUAUUUUGUACCUACAUGUGACAUGAGGAUCACCCAUGUGGUAAGUAUAAGAGAGAAGGGAAAGAUAUGU [Equivalence 5 - Jieux - Same State NG 2] (Eterna round: R96, puzzle: Same State NG 2)    0.0299

Please go through the list and note apparent KD of MS2 coat protein for each sequence.
1. ACAUGAGAGAUAGGAUAUCUUGUACCUACAUGUGACAUGAGGAUCACCCAUGUGGUAAGUAUGAGGGAGAAGGAUCAGAUAUGU [Equivalence 42 - Jieux - Same State NG 2] (Eterna round: R96, puzzle: Same State NG 2)
2. GCUCGACGUACGGCCUACAUGAGGAUCACCCAUGUGACUGGGCAGGAUAUCUAAAUGCAGAAUGUAGAGAAGGGCCCGUCGAGC [SameState NG3 #50] (Eterna round: R96, puzzle: Same State NG 3)

[reply]
1: 0.0264; 2: 0.0358

----------
System: MS2 coat protein
Experiment: apparent KD of MS2 coat protein; designed switch direction (-1 OFF switch, 1 ON switch): 1; higher = weaker reporter binding
Conditions: input ligand: none
Quantity Name: apparent KD of MS2 coat protein
Your reply should be a number followed by the unit it is expressed in.

UCAAUCAUGUAAGGAUAUGCAGCCGAAACGGCUGCAGAAGGUACUAUAAUUACAUGAGGAUCACCCAUGUUAUAAAAUUAAAAU [Mat - Same State NG 1 - JL mod - D69] (Eterna round: R96, puzzle: Same State NG 1)    130 nM
UUGCGGGCUUGAGGAUAUUGAGUACAUAUGUUUAACAUGAGGAUCACCCAUGUGGGUUGCGGUAUCGAGAAGGUAACUUCCUGC [salish99_SSNG2_r04_811] (Eterna round: R96, puzzle: Same State NG 2)    91.1 nM
GCUCGAAUCAAAACCAACAUGAGGAUCACCCAUGUAUGUUGGUAGGAUAUCGUUUGUAAAACAAACGAGAAGGGCCAAACGAGC [SameState NG3 #4] (Eterna round: R96, puzzle: Same State NG 3)    118 nM
GGAAUAUGAUGUUACAUGAGGAUCACCCAUGUAGUGAUAACUAAGGAUAUUUGAAAGGAAGGAGAAGAGAAGGUAGGAUCAUAA [AK SSNG3-V2-12] (Eterna round: R96, puzzle: Same State NG 3)    55.4 nM
AUAUGAGAAGCAGGAUAUGCGGAGAAGAAAGAAGCAGAAGGGCUUAUGGGACAACAUGAGGAUCACCCAUGUUCUCUGUGAUGA [AK SSNG1-V2-3] (Eterna round: R96, puzzle: Same State NG 1)    56.5 nM

// for each sequence below, give its apparent KD of MS2 coat protein
1. AGAUGUUAAUUAGGAUAUGGUCACAUGAGGAUCACCCAUGUAACGAUGAUACGAUGUGGUCAAGACUAGAAGGGAUCGCUAACA [SameState NG2 #72] (Eterna round: R96, puzzle: Same State NG 2)
2. UUAGAAUACGCAGGAUAUCGAUGAUUGAUAGUACGAGAAGGGCGAACAUGAGGAUCACCCAUGUAUAUUAAUUUGAGUUUGAAU [JR_SSNG1_Sub076] (Eterna round: R96, puzzle: Same State NG 1)
3. GUACAGAUCACAGGAUAUCACGUCGAUUAGACGUGAGAAGGGUGAUCACACAUGAAUAUUAAUACAUGAGGAUCACCCAUGUAC [SSNG1/16-A2] (Eterna round: R96, puzzle: Same State NG 1)

[reply]
155 nM
214 nM
30.6 nM

[ask] So what does the record say about apparent KD of MS2 coat protein for CUACGCGCCGCAGGAUAUGCCGACCCGUGUUGAGCAGAAGGGCGCAACAUGAGGAUCACCCAUGUUGAAAGAGCGCAAAAUUAA [Zaesre] (Eterna round: R96, puzzle: Same State NG 1) ?
[reply] 16 nM
